# Tested on: U937 cells (human monocytic cell line)
# Assay Text: Pam2CSK4-induced TNF-α secretion inhibition in PMA-differentiated U937 cells
# Format: cell-based
# Assay Conditions: U-937, U937 cells differentiated with PMA, read-out: TNF-α production inhibition grade (IC50)
Recorded measurements of IC50, one per entry

For orientation, consider the following solved cases.
Sample Smiles	IC50
CC[C@H]1[C@@H](O)[C@@H]2[C@H](CC[C@]3(C)[C@@H]([C@H](C)CCC(=O)N(CCS(=O)(=O)O)Cc4cccnc4)CC[C@@H]23)[C@@]2(C)CC[C@@H](O)C[C@@H]12	1000 to 2000 nM
C[C@H](CCC(=O)N[C@H](CS(=O)(=O)O)c1ccccc1)[C@H]1CC[C@H]2[C@@H]3[C@H](O)C[C@@H]4C[C@H](O)CC[C@]4(C)[C@H]3C[C@H](O)[C@]12C	1000 to 2000 nM
C[C@H](CCC(=O)N(CCS(=O)(=O)O)C1CCCCC1)[C@H]1CC[C@H]2[C@@H]3CC[C@@H]4C[C@H](O)CC[C@]4(C)[C@H]3CC[C@]12C	< 500 nM

Hello, I am looking for reported IC50 with U937 cells (human monocytic cell line) for `CC(C)C[C@@H](CS(=O)(=O)O)NC(=O)CC[C@@H](C)[C@H]1CC[C@H]2[C@@H]3CC[C@@H]4C[C@H](O)CC[C@]4(C)[C@H]3C[C@H](O)[C@]12C` . Could you help?
< 500 nM

Hello, I am looking for reported IC50 with U937 cells (human monocytic cell line) for `C[C@H](CCC(=O)N1CC(S(=O)(=O)O)C1)[C@H]1CC[C@H]2[C@@H]3CC[C@@H]4CC(=O)CC[C@]4(C)[C@H]3CC[C@]12C` . Could you help?
≥ 2000 nM

* * *

Recorded measurements of pIC50, one per entry
# Tested on: U937 cells (human monocytic cell line)
# Assay Text: Pam2CSK4-induced TNF-α secretion inhibition in PMA-differentiated U937 cells
# Assay type: cell-based
# Assay Conditions: U-937, U937 cells differentiated with PMA, read-out: TNF-α production inhibition grade (IC50)
pIC50: −log10 of the molar value.

For orientation, consider the following solved cases.
Sample Smiles	System	pIC50
CC(C)C[C@@H](CS(=O)(=O)O)NC(=O)CC[C@@H](C)[C@H]1CC[C@H]2[C@@H]3CC[C@@H]4C[C@H](O)CC[C@]4(C)[C@H]3CC[C@]12C	U937 cells (human monocytic cell line)	> 6.30
C[C@H](CCC(=O)N[C@@H](CO)CS(=O)(=O)O)[C@H]1CC[C@H]2[C@@H]3[C@H](O)C[C@@H]4C[C@H](O)CC[C@]4(C)[C@H]3C[C@H](O)[C@]12C	U937 cells (human monocytic cell line)	> 6.30
C[C@H](CCC(=O)N1CCC(S(=O)(=O)O)CC1)[C@H]1CC[C@H]2[C@@H]3CC[C@@H]4C[C@H](O)CC[C@]4(C)[C@H]3C[C@H](O)[C@]12C	U937 cells (human monocytic cell line)	> 6.30
CC[C@H]1[C@@H](O)[C@@H]2[C@H](CC[C@]3(C)[C@@H]([C@H](C)CCC(=O)N[C@@H](Cc4ccccc4)CS(=O)(=O)O)CC[C@@H]23)[C@@]2(C)CC[C@@H](O)C[C@@H]12	U937 cells (human monocytic cell line)	6.00 to 6.30
CC[C@H]1[C@@H](O)[C@@H]2[C@H](C[C@H](O)[C@]3(C)[C@@H]([C@H](C)CCC(=O)NC[C@@H](C)S(=O)(=O)O)CC[C@@H]23)[C@@]2(C)CC[C@@H](O)C[C@@H]12	U937 cells (human monocytic cell line)	≤ 5.70

Hello, I am looking for reported pIC50 with U937 cells (human monocytic cell line) for `CC[C@H]1[C@@H](O)[C@@H]2[C@H](CC[C@]3(C)[C@@H]([C@H](C)CCC(=O)N4CCC[C@@H]4CS(=O)(=O)O)CC[C@@H]23)[C@@]2(C)CC[C@@H](O)C[C@@H]12` . Could you help?
5.70 to 6.00

Hello, I am looking for reported pIC50 with U937 cells (human monocytic cell line) for `C[C@H](CCC(=O)NCCCO)[C@H]1CC[C@H]2[C@@H]3CC[C@@H]4C[C@H](O)CC[C@]4(C)[C@H]3C[C@H](O)[C@]12C` . Could you help?
5.70 to 6.00

Hello, I am looking for reported pIC50 with U937 cells (human monocytic cell line) for `CC[C@H]1[C@@H](O)[C@@H]2[C@H](CC[C@]3(C)[C@@H]([C@H](C)CCC(=O)N4CCC[C@@H](S(=O)(=O)O)C4)CC[C@@H]23)[C@@]2(C)CC[C@@H](O)C[C@@H]12` . Could you help?
6.00 to 6.30

Hello, I am looking for reported pIC50 with U937 cells (human monocytic cell line) for `CC[C@H]1[C@@H](O)[C@@H]2[C@H](C[C@H](O)[C@]3(C)[C@@H]([C@H](C)CCC(=O)N(C)CCS(=O)(=O)O)CC[C@@H]23)[C@@]2(C)CC[C@@H](O)C[C@@H]12` . Could you help?
≤ 5.70

* * *

# System: U937 cells (human monocytic cell line)
# Assay Text: BzATP-induced IL-1β secretion inhibition in PMA-differentiated U937 cells
# Assay type: cell-based
# Assay Conditions: U-937, U937 cells differentiated with PMA, read-out: IL-1β production inhibition grade (IC50)
pIC50: −log10 of the molar value.
Attribute Measured: pIC50

pIC50 lookup needed for C[C@H](CCC(=O)NC[C@@H](C)S(=O)(=O)O)[C@H]1CC[C@H]2[C@@H]3CC[C@@H]4C[C@H](O)CC[C@]4(C)[C@H]3CC[C@]12C [NC10079] , thanks.
> 7.30

pIC50 lookup needed for C[C@H](CCC(=O)N(CCN(C)C)CCS(=O)(=O)O)[C@H]1CC[C@H]2[C@@H]3CC[C@@H]4CC(=O)CC[C@]4(C)[C@H]3CC[C@]12C [NC30035] , thanks.
> 7.30

* * *

# Test system: U937 cells (human monocytic cell line)
# Assay Text: BzATP-induced IL-1β secretion inhibition in PMA-differentiated U937 cells
# Assay type: cell-based
# Assay Conditions: U-937, U937 cells differentiated with PMA, read-out: IL-1β production inhibition grade (IC50)
# Description: To evaluate anti-inflammatory efficacy, U937 cells (human monocytic cell line) were differentiated into macrophages using PMA (phorbol 12-myristate 13-acetate) and then induced an inflammatory response with Pam2CSK4 (Pam2CysSerLys4) or BzATP (2′(3′)—O-(4-Benzoylbenzoyl)adenosine 5′-triphosphate), the efficacy of taurine-bile acid derivatives in suppressing inflammatory cytokine (IL-1β, TNF-α) production was measured. […]
Attribute Measured: IC50

For orientation, consider the following solved cases.
Sample Smiles	IC50
CC(C)C[C@H](CS(=O)(=O)O)NC(=O)CC[C@@H](C)[C@H]1CC[C@H]2[C@@H]3CC[C@@H]4C[C@H](O)CC[C@]4(C)[C@H]3CC[C@]12C	< 0.05 µM
C[C@H](CCC(=O)N[C@@H]1CCCC[C@@H]1S(=O)(=O)O)[C@H]1CC[C@H]2[C@@H]3[C@H](O)C[C@@H]4C[C@H](O)CC[C@]4(C)[C@H]3C[C@H](O)[C@]12C	0.1 to 0.2 µM
C[C@H](CCC(=O)NCCC(=O)O)[C@H]1CC[C@H]2[C@@H]3[C@H](O)C[C@@H]4C[C@H](O)CC[C@]4(C)[C@H]3C[C@H](O)[C@]12C	0.1 to 0.2 µM
C[C@H](CCC(=O)N(CCS(=O)(=O)O)Cc1cccnc1)[C@H]1CC[C@H]2[C@@H]3CC[C@@H]4C[C@H](O)CC[C@]4(C)[C@H]3CC[C@]12C	0.05 to 0.1 µM
C[C@H](CCC(=O)N1CCC(S(=O)(=O)O)CC1)[C@H]1CC[C@H]2[C@@H]3[C@H](O)C[C@@H]4C[C@H](O)CC[C@]4(C)[C@H]3C[C@H](O)[C@]12C	0.05 to 0.1 µM
CC[C@H]1[C@@H](O)[C@@H]2[C@H](CC[C@]3(C)[C@@H]([C@H](C)CCC(=O)N4CCC[C@@H]4CS(=O)(=O)O)CC[C@@H]23)[C@@]2(C)CC[C@@H](O)C[C@@H]12	0.1 to 0.2 µM

IC50 lookup needed for `C[C@H](CCC(=O)N1CCC[C@H]1CS(=O)(=O)O)[C@H]1CC[C@H]2[C@@H]3[C@H](O)C[C@@H]4C[C@H](O)CC[C@]4(C)[C@H]3C[C@H](O)[C@]12C` , thanks.
0.05 to 0.1 µM

IC50 lookup needed for `CC[C@H]1[C@@H](O)[C@@H]2[C@H](C[C@H](O)[C@]3(C)[C@@H]([C@H](C)CCC(=O)N[C@@H](CC(C)C)CS(=O)(=O)O)CC[C@@H]23)[C@@]2(C)CC[C@@H](O)C[C@@H]12` , thanks.
0.1 to 0.2 µM

IC50 lookup needed for `C[C@H](CCC(=O)N1CCN(CCS(=O)(=O)O)CC1)[C@H]1CC[C@H]2[C@@H]3CC[C@@H]4C[C@H](O)CC[C@]4(C)[C@H]3C[C@H](O)[C@]12C` , thanks.
< 0.05 µM

IC50 lookup needed for `C[C@H](CCC(=O)N[C@@H](CS(=O)(=O)O)c1ccccc1)[C@H]1CC[C@H]2[C@@H]3CC[C@@H]4CC(=O)CC[C@]4(C)[C@H]3CC[C@]12C` , thanks.
≥ 0.2 µM

Where do these numbers come from? They come from patent US20240391948A1.
